Target: ETS1 (UniProt P14921)
Sequence: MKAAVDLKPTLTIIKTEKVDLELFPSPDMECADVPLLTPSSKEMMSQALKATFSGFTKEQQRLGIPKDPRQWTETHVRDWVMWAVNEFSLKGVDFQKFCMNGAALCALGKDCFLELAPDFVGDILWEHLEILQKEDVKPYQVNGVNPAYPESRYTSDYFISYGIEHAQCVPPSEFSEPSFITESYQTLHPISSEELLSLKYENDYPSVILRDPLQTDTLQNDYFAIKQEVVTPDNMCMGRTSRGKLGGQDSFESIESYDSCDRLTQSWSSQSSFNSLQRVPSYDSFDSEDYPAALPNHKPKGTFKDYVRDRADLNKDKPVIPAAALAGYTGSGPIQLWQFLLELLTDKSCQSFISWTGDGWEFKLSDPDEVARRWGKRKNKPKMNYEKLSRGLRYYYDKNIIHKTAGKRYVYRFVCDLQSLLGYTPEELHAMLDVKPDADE
Experiment: ETS1 binding intensity (PBM fluorescence), ETS1 alone (arbitrary fluorescence units); higher = stronger binding
Conditions: ETS1 concentration 1 nM; RUNX1 concentration 0 nM
Catalogue of sequences with associated ETS1 binding intensity
Simply state the number, no unit and no words.

Study these solved cases before continuing.
chain_sequence=AGGGCATAAACAGGATGTGGTGTTGGATGAAACCTT reported_result=5290
chain_sequence=GGACGCCGCCGGAAGCGCGACCCGCACTCCCGGTAG reported_result=3650
chain_sequence=ACTATTTTTAGACTTCCCCACCCCGCAGTTTCAAGG reported_result=601
chain_sequence=ACCTGTGTTCTGGCAGGATGTGGTTGACCTCAGCAG reported_result=4140
chain_sequence=ACCTGCACTTCCTCCTCCCTAGACCGCACCCTTCTC reported_result=491

Proceed to the following item.
[in] Please provide the recorded ETS1 binding intensity for `CAACAAGAGGAAATCAGAAACACTGAAGCCACAGCT` , tested on ETS1 (UniProt P14921).
[out] 420
